Target or system: human VR1 (Homo sapiens, UniProt Q8NER1)
Construct: expressed in transfected cells
Sequence (Q8NER1 whole entry): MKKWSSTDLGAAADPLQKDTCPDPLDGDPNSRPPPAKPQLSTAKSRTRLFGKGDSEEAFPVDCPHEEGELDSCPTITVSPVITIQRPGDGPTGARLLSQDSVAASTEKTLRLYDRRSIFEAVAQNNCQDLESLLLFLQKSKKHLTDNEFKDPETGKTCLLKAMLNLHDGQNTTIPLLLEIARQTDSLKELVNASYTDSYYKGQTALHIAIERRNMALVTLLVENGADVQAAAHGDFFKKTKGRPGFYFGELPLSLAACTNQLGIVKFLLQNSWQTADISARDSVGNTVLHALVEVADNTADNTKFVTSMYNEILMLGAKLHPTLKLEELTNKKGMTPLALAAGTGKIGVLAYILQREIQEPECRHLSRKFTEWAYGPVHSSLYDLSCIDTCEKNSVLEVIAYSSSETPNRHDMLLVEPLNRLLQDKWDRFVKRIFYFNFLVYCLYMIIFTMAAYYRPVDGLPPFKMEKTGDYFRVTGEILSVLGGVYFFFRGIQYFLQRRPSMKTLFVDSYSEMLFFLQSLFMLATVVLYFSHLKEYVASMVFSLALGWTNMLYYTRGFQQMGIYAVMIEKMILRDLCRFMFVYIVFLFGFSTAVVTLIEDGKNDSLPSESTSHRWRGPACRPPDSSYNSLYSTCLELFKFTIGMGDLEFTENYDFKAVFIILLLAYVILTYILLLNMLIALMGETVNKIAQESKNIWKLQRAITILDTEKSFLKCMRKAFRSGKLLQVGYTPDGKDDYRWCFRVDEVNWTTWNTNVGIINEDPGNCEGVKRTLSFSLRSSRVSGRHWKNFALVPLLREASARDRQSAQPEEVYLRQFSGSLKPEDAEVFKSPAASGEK
Test description: FLIPR Calcium 3 calcium flux assay (headed Vanilloid Receptor Binding Assay), antagonist activity against capsaicin
Assay type: cell-based
Experimental parameters: 10 min; highest concentration of 10 μM; Chinese hamster ovary cells expressing human VR1; read-out: TRPV1 % Mean effect at 10 μM concentration
Metric: inhibition at 10 µM (%)

Examples with their reported inhibition at 10 µM follow.
                                   compound  readout_unit  readout_number
0  CCCC(C)NC(=O)c1cc(-c2ccc(Cl)cc2)on1 (stereo not drawn)             %              50
1  O=C(NC1CCOCC1)c1noc(-c2ccc(C(F)(F)F)cc2)c1Cl             %              89
2  O=C(NC1CCCC1)c1noc(-c2ccc(C(F)(F)F)cc2)c1F             %              96
3     O=C(NC1CCCC1)c1noc(-c2ccc(Cl)cc2)c1Cl             %             102

(1) CCCC(C)NC(=O)c1noc(-c2ccc(Cl)cc2)c1Cl (stereo not drawn)
(2) O=C(NC1CCCC1)c1cc(-c2ccc(Cl)cc2)on1
Request: Just tell me: smaller inhibition at 10 µM value, 1 or 2 ? When you have decided, please share the label of that item.
Result: 2
(2: 17%, 1: 89%)
